# testProtocol: Clearance in human liver microsome
# Format: ADME
# conditionContext: liver microsomes
quantityName: microsomal CLint (µL/min/mg)

P. Nc1nc2nc(SCc3cccc(F)c3F)[nH]c(=O)c2s1
Q. CC(C)(CO)Nc1nc(SCc2cccc(F)c2F)nc2nc(N)sc12
R. CC[C@H](CO)Nc1nc(SCc2ccccc2)nc2nc(N)sc12
S. CCCCCSc1nc(O)c2sc(N)nc2n1
In: Sort ascending by microsomal CLint. Sort the labels as requested; that list is your answer.
Out: P, R, S, Q
(P: 2 µL/min/mg, R: 6 µL/min/mg, S: 18 µL/min/mg, Q: 31 µL/min/mg)

The reported measurements were obtained from ChEMBL document CHEMBL1149469.
